Source of measurements: paper PMC12749166

- System Tested: APH(3’)-IIb (Pseudomonas aeruginosa, UniProt Q9HWR2, M95L)
- Sequence (Q9HWR2 1-268 M95L): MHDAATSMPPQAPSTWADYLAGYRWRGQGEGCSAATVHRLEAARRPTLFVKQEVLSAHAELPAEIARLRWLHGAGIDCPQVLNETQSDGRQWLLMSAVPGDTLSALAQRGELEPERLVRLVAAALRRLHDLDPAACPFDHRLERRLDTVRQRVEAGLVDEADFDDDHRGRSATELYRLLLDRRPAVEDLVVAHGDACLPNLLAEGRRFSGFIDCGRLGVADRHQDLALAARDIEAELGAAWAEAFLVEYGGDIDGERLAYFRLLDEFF
- Assay Overview: Isothermal Titration Calorimetry
Endpoint: Kd (nM)
One number for each entry, in nM.

Query string: Entry Clc1cnc2[nH]ccc2c1-c1ccn[nH]1 [Compound 83] has what Kd?
Result string: 270
